system: 377384-186-R-J1-PDC complex spheroid viability; assay: Anticancer human tumor 377384-186-R-J1-PDC patient-derived pancreatic carcinoma cell line growth inhibition [RAS]; conditions: second compound 1 µM; first compound 0.316 µM; active = viability on the fitted dose curve at most 10% of control; inactive = the rest;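 note: spheroids exposed to compounds for seven days before readout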
Valid outcomes are listed here; reply with one: active, inactive

Example cases with answers are listed next.
COMPOUND	DISCRETE_LABEL
CC1(O)CCCC1n1c(=O)c(C(F)F)cc2cnc(NC3CCN(S(C)(=O)=O)CC3)nc21 (configuration not stated) + C=CC(=O)N1CCN(c2nc(OCC3CCCN3C)nc3c(F)c(-c4nc(N)cc(C)c4C(F)(F)F)c(Cl)cc23)C(C)C1	inactive
CCC(CC)c1cc(NC2CCC(N)C2)n2nccc2n1 (configuration not stated) + C#Cc1c(F)ccc2cc(O)cc(-c3ncc4c(N5CC6CCC(C5)N6)nc(OCC56CCCN5CC(F)C6)nc4c3F)c12	active

Consider now this further compound.
Each compound tested received a call. Report the one for C[C@@H](NC(=O)c1ncnc(N)c1Cl)c1ncc(C(=O)Nc2cc(C(F)(F)F)c(Cl)cn2)s1 + C=CC(=O)N1CCN(c2nc(OCC3CCCN3C)nc3c(F)c(-c4nc(N)cc(C)c4C(F)(F)F)c(Cl)cc23)C(C)C1 .
inactive
